FYI, the data here is from PubChem BioAssay (NCI).

# System: HS 578T breast
# Protocol Description: NCI-60 one-dose screen, 48 h (100 = growth as untreated, 0 = no growth, -100 = all killed)
# Run Conditions: 10 µM unless noted
# Method: Growth inhibition of the HS 578T human tumor cell line is measured as a screen for anti-cancer activity. Cells are grown in 96 well plates and exposed to the test compound for 48 hours. Compounds are tested at a single concentration, which is 10^-5 M for most compounds. The reported endpoint is percent growth (GI% or GIPRCNT), where numbers from 0 - 100% represent growth inhibition, and numbers from -100% - 0 represent cell death. For example, a value of 40 represents 60% growth inhibition. […]
Compounds without any hit were thinned out: in the full panel of roughly 83,000, 20% have a hit.
Could you label it true (1) if measured growth is 30% or higher, and false (0) otherwise?

Determine whether measured growth meets or exceeds 30% for N#CC1=C(N)Oc2c(sc3c(Br)cccc23)C1c1ccc([N+](=O)[O-])cc1 (stereo not given)
false (0)

Determine whether measured growth meets or exceeds 30% for Cc1ccc(-c2nc(N3CCN(C(=O)c4ccc(OC(F)(F)F)cc4)CC3)c3ccccc3n2)cc1
true (1)

Determine whether measured growth meets or exceeds 30% for COc1cccc(/C=C2\C=C(c3ccccc3)N(Cc3ccccc3)C2=O)c1
true (1)

Determine whether measured growth meets or exceeds 30% for O=C(CCN1C(=O)/C(=C/c2ccc(O)cc2)SC1=S)Nc1ccc(Cl)cc1
true (1)

Determine whether measured growth meets or exceeds 30% for CCN1C(=O)N(CC)C2Nn3c(s/c(=C4\C(=O)Nc5ccccc54)c3=O)=NC21 (stereo not given)
true (1)

----------
# Tested on: SW-620 colon
# Protocol Description: NCI-60 one-dose screen, 48 h
# Run Conditions: 10 µM unless noted
Compounds without any hit were thinned out: in the full panel of roughly 83,000, 20% have a hit. Activity calls are given as the source filed them. Rule for the calls: active = growth percent below 10; inactive = the rest.
Answer with one of the outcomes given here: active, inactive

Hi team, can someone confirm the assay call for CN1CCN(c2ccc(-c3cc4c(Nc5ccc(F)c(Cl)c5)ncnn4c3)cn2)CC1 ?
inactive

Hi team, can someone confirm the assay call for O=C(Nc1ccc(Cl)cc1F)c1cc(Cl)ccc1O ?
active

Hi team, can someone confirm the assay call for NCCCNc1nc2ccccc2c2c(=O)c3cc(F)cc(Cl)c3sc12 ?
active

Hi team, can someone confirm the assay call for CCN1C(=O)N(CC)C2Nn3c(s/c(=C4\C(=O)Nc5ccccc54)c3=O)=NC21 (stereo not given) ?
inactive

Hi team, can someone confirm the assay call for O=C1/C(=C/c2ccccc2[N+](=O)[O-])Oc2ccc(O)c(O)c21 ?
inactive

Hi team, can someone confirm the assay call for c1ccc2c(-c3nc(-c4c[nH]c5ccncc45)cs3)c[nH]c2c1 ?
active

Hi team, can someone confirm the assay call for Cc1cc(=O)oc2cc(OC(=O)N3CCN(C)CC3)ccc12 ?
inactive

Hi team, can someone confirm the assay call for O=C(CCCCCCSc1nc(-c2ccccc2)cc(-c2ccccc2)n1)NO ?
active

Hi team, can someone confirm the assay call for OC(COc1ccccc1Cl)CN1CCN(c2cccc(Cl)c2)CC1 (stereo not given) ?
inactive

Hi team, can someone confirm the assay call for Cc1nc2ccccc2c(/C=C/c2ccccc2)c1C(=O)/C=C/c1ccc(C(F)(F)F)cc1 ?
active

----------
# Test system: DU-145 prostate
# Protocol Description: NCI-60 one-dose screen, 48 h (100 = growth as untreated, 0 = no growth, -100 = all killed)
# Run Conditions: 10 µM unless noted
Compounds without any hit were thinned out: in the full panel of roughly 83,000, 20% have a hit.
Assign growth to each entry below.
A number alone suffices; assume %.

What does the record list as growth for NS(=O)(=O)c1ccc(-n2nc(C(=O)N/N=C\c3ccc(F)cc3)cc2-c2ccc(Br)cc2)cc1 ?
93.4

What does the record list as growth for COc1c(B(O)O)cc(C)cc1-c1nc2ccc3[nH]ncc3c2c2c1CCCC2 ?
72.6

What does the record list as growth for COc1cc(C)c(Cc2cnc(N)nc2N)cc1OC ?
120

What does the record list as growth for CCN1C(=O)N(CC)C2Nn3c(s/c(=C4\C(=O)N(CC(C)C)c5ccccc54)c3=O)=NC21 (stereo unspecified) ?
34.5

What does the record list as growth for c1ccc2cc(C[n+]3ccn(CCCCCCn4cc[n+](Cc5ccc6ccccc6c5)c4)c3)ccc2c1 ?
65.9

What does the record list as growth for Cc1cc(Cl)ccc1NS(=O)(=O)c1ccc(-c2cnc(C3CC3)o2)cc1 ?
21

What does the record list as growth for O=c1[nH]c2c(ccc3cnccc32)c2c1CCC2 ?
-9.29

What does the record list as growth for CCOC(=O)c1c(C)nc2c(c1N)CC(=O)N2Cc1ccc(F)cc1 ?
100

What does the record list as growth for CCC12CCC[N+]3([O-])CCC4(C(=Nc5ccccc54)C(O)(C(=O)OC)C1)C23 (stereo unspecified) ?
103

What does the record list as growth for CC/C=C\C[C@@H](O)C/C=C1/C(=O)C=C[C@H]1C/C=C\CCCC(=O)OC ?
28.7

What does the record list as growth for O=C(Nc1ccc(I)cc1F)c1cc(I)ccc1O ?
21.2

What does the record list as growth for N#CC1=C(N)Oc2c(sc3c(Br)cccc23)C1c1ccc(Br)cc1 (stereo unspecified) ?
8.77

What does the record list as growth for COc1ccc2cc(C(C)C(=O)Nc3ccc(-c4n[nH]c(=S)n4C4CCCCC4)cc3)ccc2c1 (stereo unspecified) ?
89.1

What does the record list as growth for OC(COc1ccccc1)CN1CCN(c2ccc(Cl)cc2)CC1 (stereo unspecified) ?
110

What does the record list as growth for Fc1cc2c(cc1Cl)N(c1ncnc3ccc(-c4cnc5cnccn45)cc13)CC2 ?
74.7

What does the record list as growth for Cc1cc(N2CCCC2)nc(N(CCCNc2ccnc3cc(Cl)ccc23)Cc2ccccn2)n1 ?
62.7

What does the record list as growth for COc1ccc(/C=C/c2c(C(=O)/C=C/c3ccc(C(F)(F)F)cc3)c(C)nc3ccccc23)cc1 ?
-81

What does the record list as growth for COc1ccc2nc(NCCCNCCO)c3sc4ccc(F)cc4c(=O)c3c2c1 ?
-49.7

What does the record list as growth for CCOC(=O)c1[nH]c(C)c(C(=O)OCc2ccccc2C#N)c1C ?
87.2

What does the record list as growth for CC(C)OC(=O)Nc1ccc(-c2nc(-c3cccc(OCCN4CCOCC4)c3)c(-c3ccnc(Br)c3)[nH]2)cc1 ?
63.8

What does the record list as growth for Cc1ccc(C(C)C)cc1C(=O)C[n+]1ccccc1 ?
107

----------
# System: HS 578T breast
# Protocol Description: NCI-60 one-dose screen, 48 h (100 = growth as untreated, 0 = no growth, -100 = all killed)
# Run Conditions: 10 µM unless noted
About 83,000 compounds went through this panel and 20% of them were active in at least one assay; those are over-represented in the sample as a whole.
Measured Quantity: growth (%)
A number alone suffices; assume %.

What does the record list as growth for COC(=O)CCC/C=C\C[C@H]1C=CC(=O)/C1=C/C[C@@H](O)CCc1cccc(C(F)(F)F)c1 ?
32.3

What does the record list as growth for O=C(/C=C/c1cccc2ccccc12)c1ccc(NC(=O)c2ccccc2CN2C(=O)c3ccccc3C2=O)cc1 ?
66.2

What does the record list as growth for Nc1nn(C(=O)Nc2ccc(Cc3ccccc3)cc2)c2ccc(Cl)cc12 ?
92.1

What does the record list as growth for COc1cc(C(=O)c2cc(C)c3[nH]c4ccc(O)cc4c3c2C)cc(OC)c1OC ?
38.1

What does the record list as growth for O=c1[nH][n+](-c2ccc(Br)cc2)no1 ?
97.7

What does the record list as growth for c1cc(-c2nnc(SSc3ncnc4nc[nH]c34)o2)ccn1 ?
66

What does the record list as growth for CCc1cccc2c1S/C(=C/c1ccc(Cl)cc1)C2=O ?
88

What does the record list as growth for Cc1ccc2sc3c(NCCN)nc4ccccc4c3c(=O)c2c1 ?
85

What does the record list as growth for O=[N+]([O-])c1ccc(Oc2nc(Nc3ccc(O[C@H]4CO[C@H]5[C@@H]4OC[C@@H]5O)c(Cl)c3)ncc2F)c(Cl)c1 ?
-2.68

What does the record list as growth for NCCCNc1nc2ccccc2c2c(=O)c3cc(F)cc(Cl)c3sc12 ?
88.3

----------
# Tested on: HOP-92 NSCLC
# Protocol Description: NCI-60 one-dose screen, 48 h (100 = growth as untreated, 0 = no growth, -100 = all killed)
# Run Conditions: 10 µM unless noted
About 83,000 compounds went through this panel and 20% of them were active in at least one assay; those are over-represented in the sample as a whole. Calls of active or inactive are those of the source. The calls were made as follows: active = growth percent below 10; inactive = the rest.
Assign growth to each entry below.

What does the record list as growth for OC(COc1ccccc1)CN1CCN(c2ccc(Cl)cc2)CC1 (stereo not given) ?
80.5% (inactive)

What does the record list as growth for COc1cccc(Cc2nn3cc(-c4ccccc4)nc3s2)c1 ?
84.8% (inactive)

What does the record list as growth for Cc1cc(O)c(C2=NN(c3ccc(S(N)(=O)=O)cc3)C(c3ccccc3O)C2)cc1Cl (stereo not given) ?
5.49% (active)

What does the record list as growth for CCCCCCCNC(=O)CCCNc1ncnc2c1ncn2-c1cccc(C(C)O)c1 (stereo not given) ?
96.6% (inactive)

What does the record list as growth for C=C1CC[C@@]2(C#N)[C@H]3[C@H](CC[C@@H]2C)[C@@H](C)C[C@@H](CC(C)(C)C#N)[C@H]13 ?
-16.9% (active)
